# shrunken log2 fold change listing for each entry below
# System: Escherichia coli TOP10;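 also: peptides expressed intracellularly from a pBAD plasmid library in pooled LB shake-flask culture, induced with 0.3% L-arabinose, DNA abundance read by NGS, three biological replicates, DESeq2 with apeglm shrinkage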
# ASSAY_PROCEDURE: shrunken log2 fold change of peptide-encoding DNA abundance (4.5 h post-induction vs induction); higher = less antimicrobial activity (less host growth inhibition)
# CONDITION_CONTEXT: time post-induction: 4.5 h; library: site-saturation at positions 5, 18, 19, 20

Reference set (5 entries):
{"columns": ["QUERY_SEQUENCE", "shrunken log2 fold change"],
 "data": [
  ["RRIRWRPPRLPRPRPRPAKIPRP", 0.132],
  ["RRIRRRPPRLPRPRPRPCKHPRP", 0.00883],
  ["RRIRFRPPRLPRPRPRPDYTPRP", -0.02],
  ["RRIRRRPPRLPRPRPRPNGMPRP", -0.0764],
  ["RRIRWRPPRLPRPRPRPSFDPRP", 0.0774]
]}

Here is another sequence to look at.
Given RRIRDRPPRLPRPRPRPYEAPRP , state its recorded shrunken log2 fold change. -0.108
